system: KM12; assay: NCI tumour cell line growth inhibition, 48 h
The source made the active and inactive calls. Rule as the data show it: active = GI50 up to about 1.1 µM and inactive = higher.

| molecule | tested.target | GI50 |
| --- | --- | --- |
| COC(=O)C1CC23C4=C(CCC41)CCC1CN4CC(C)C(CC(OC(C)=O)C12COC(C)=O)C43O (stereo not given) | KM12 | > 100 µM (inactive) |
| COc1cc(C2c3cc4c(cc3OC(NN=C(C)C)C2C)OCO4)cc(OC)c1O (stereo not given) | KM12 | 21.2 µM (inactive) |
| CC(C)C(=O)CC(c1ccc(Br)cc1)N1N=C(C(C)C)CC1c1ccc(Br)cc1 (stereo not given) | KM12 | > 100 µM (inactive) |
| COc1nc(C#CC2(O)CCCCC2)nc(OC)n1 | KM12 | 15.8 µM (inactive) |
| N#CC12CC3(CCC1CCC1(C2)OCCO1)OCCO3 (stereo not given) | KM12 | > 100 µM (inactive) |
| COc1ccc(-c2nc3ccccc3s2)cc1OC | KM12 | 30.2 µM (inactive) |
| O=C1CC(C2(O)C(=O)Nc3ccc([N+](=O)[O-])cc32)c2ccccc21 (stereo not given) | KM12 | 35.4 µM (inactive) |
| COc1ccc(NC(=O)CC/C(CC(=O)c2ccco2)=N/Nc2ccc([N+](=O)[O-])cc2[N+](=O)[O-])cc1 | KM12 | > 100 µM (inactive) |
| O=C1C2=C(C3=NCCc4c[nH]c1c43)C1(C=C(Br)C(O)C(Br)=C1)CCN2 (stereo not given) | KM12 | 1.82 µM (inactive) |
| N#CC12Cc3cc4c(cc3-c3cccc(c31)CCN2C(=O)c1ccccc1)OCO4 (stereo not given) | KM12 | > 100 µM (inactive) |
| Cc1oc2c(C)c(O)c3c(c2c1C1(C)OCCO1)C(=O)C=C(Cl)C3=O | KM12 | > 100 µM (inactive) |
| CC1(C)CC(=O)C(Cc2ccccc2)(Cc2ccccc2)C(=O)C1 | KM12 | > 100 µM (inactive) |
| N#CCCN(CCC#N)c1ccc(/C=C2\N=C(c3ccccc3)N(NC(N)=S)C2=O)cc1 | KM12 | 12.9 µM (inactive) |
| C[C@]12CCC(=O)C=C1CC[C@@H]1C2CC[C@]2(C)Nc3c(ncn3-c3ccc(F)cc3)CC12 (stereo not given in full) | KM12 | 17.2 µM (inactive) |
| CS(=O)(=O)NNS(=O)(=O)c1ccc(F)cc1 | KM12 | > 100 µM (inactive) |
| Nc1ccc(/N=N/c2ccccc2)cc1 | KM12 | 23.8 µM (inactive) |
| O=C(CC(C(=O)c1ccsc1)c1ccccc1)c1cccs1 (stereo not given) | KM12 | 26.8 µM (inactive) |
| COc1ccc(OC)c(NC(=O)C2=C(C)NC(C)=C(C(=O)Nc3cc(OC)ccc3OC)C2c2ccccc2)c1 | KM12 | 91.4 µM (inactive) |
| Cn1ccnc1SC(F)(F)c1nc2ccccc2o1 | KM12 | > 100 µM (inactive) |
| O=C1[C@H]2C(c3ccccc3)=NN(C(=O)c3ccccc3)[C@H]2C(=O)N1c1ccccc1 | KM12 | > 100 µM (inactive) |
| COc1ccc(C2NC(c3ccc(OC)cc3)C(C)C(=O)C2C)cc1 (stereo not given) | KM12 | > 100 µM (inactive) |
| O=c1c2ncn(CCCl)c2n(-c2ccccc2)c(=S)n1-c1ccccc1 | KM12 | > 100 µM (inactive) |
| CC(=O)c1sc2c(c1OC(=O)c1ccccc1)c(=O)n(-c1ccccc1)c(=S)n2-c1ccccc1 | KM12 | 33.1 µM (inactive) |
| CC(C)=CCc1c(C)cc2cc3c(c(O)c2c1O)C(=O)C=C(O)C3(CC=C(C)C)C/C=C(\C)CO (stereo not given) | KM12 | 41.9 µM (inactive) |
| Cn1cnc(N2CCCC2)c(C#N)c1=O | KM12 | > 100 µM (inactive) |
| CSc1nc(Cl)c(Br)c(Nc2cnc(O)nc2O)n1 | KM12 | 22.8 µM (inactive) |
| CN(C)CC1CCC/C(=C\c2ccc(N(C)C)cc2)C1=O (stereo not given) | KM12 | 1.44 µM (inactive) |
| Cc1nc2c(C)ccc([N+](=O)[O-])c2c(NCCCN(C)C)c1C | KM12 | > 100 µM (inactive) |
| CCN(CC)CCNc1ccc([N+](=O)[O-])c2nc3ccccc3c(N)c12 | KM12 | 0.293 µM (active) |
| CCn1c2c(c3ccccc3c1=O)C(=O)c1ccccc1-2 | KM12 | > 100 µM (inactive) |
| CC(C)=Cc1cc2c(cc1O)CCC1C2CC[C@@]2(C)C1CC[C@@H]2O (stereo not given in full) | KM12 | 11.8 µM (inactive) |
| CCOC(=O)/C=C(/C(=O)OCC)n1cc(C)c(=O)n(Cc2cnnn2COCCOC(C)=O)c1=O | KM12 | 21.3 µM (inactive) |
| OC(c1ccco1)C(F)(F)c1nc2ccccc2o1 (stereo not given) | KM12 | > 100 µM (inactive) |
| COC(=N)/C(=C1\OC(=N)C(c2ccc(Cl)cc2)=C1O)c1ccc(Cl)cc1 | KM12 | > 100 µM (inactive) |
| CC(C)C1OC(=O)/C=C/C=C/C=C/C=C/C=C/CC(O)C(C)C(O)CC(O)CC(O)CC(O)CC(O)CC(O)CC(O)/C=C/C1C (stereo not given) | KM12 | > 100 µM (inactive) |
| COc1ccc2c(c1)[n+]([O-])c(-c1ccc(Cl)c(Cl)c1)c(N)[n+]2[O-] | KM12 | 34.3 µM (inactive) |
| Cc1ccsc1/C(S)=N\c1ccc(Cl)c(/C=N/OC(C)(C)C)c1 | KM12 | 25.1 µM (inactive) |
| Cc1cc(Cl)cc2c1NC(=O)C2=O.O=C(c1ccccc1)C(F)(F)F | KM12 | 61 µM (inactive) |
| O=C(Nc1nc2c(ncn2C2OC(CO)C(O)C2O)c(=O)[nH]1)c1ccccc1 (stereo not given) | KM12 | > 100 µM (inactive) |
| CC(C)CCNC(=O)c1ccc(CNC(=O)/C=C/c2ccc3ccccc3c2)cc1 | KM12 | > 100 µM (inactive) |

====

tested on: SF-268; assay: NCI tumour cell line growth inhibition, 48 h
Calls of active or inactive are those of the source. Cut-off read from the data, not from the text of the source: active = GI50 up to about 1.1 µM and inactive = higher.
Outcomes: active, inactive

| compound | class.name |
| --- | --- |
| CC[C@](O)(CC(=O)O[C@H]1C(=O)O[C@@H]2C[C@H]3C(C)=CC(=O)[C@@H](O)[C@]3(C)[C@H]3[C@@]4(O)OC[C@]32[C@@H]1[C@@H](C)[C@H]4O)C(C)C | active |
| COc1ccc(-n2c(N)c(C#N)c(C#N)c2-c2ccco2)cc1 | inactive |
| COc1ccccc1-c1nc[nH]c1-c1ccccc1OC | inactive |
| CCN(CC)CCNc1ccc([N+](=O)[O-])c2nc3ccccc3c(N)c12 | active |
| CN1CCc2c1nc(-c1cccnc1)c1c2N(C)CC1 | inactive |
| O=C(CC(C(=O)c1ccsc1)c1ccccc1)c1cccs1 (stereo not drawn) | inactive |
| COc1cccc(C(=O)O[C@H]2[C@@H]3[C@]4(OC(C)=O)CO[C@@H]4C[C@H](O)[C@@]3(C)C(=O)[C@H](OC(C)=O)C3=C(C)[C@@H](OC(=O)[C@H](O)[C@@H](NC(=O)OC(C)(C)C)c4ccco4)C[C@]2(O)C3(C)C)c1 | active |
| CCOC(=O)/C=C(/C(=O)OCC)n1cc(C)c(=O)n(Cc2cnnn2COCCOC(C)=O)c1=O | inactive |
| O=CN/C=C\c1cc(O)ccc1O | inactive |
| COc1ccc(C(O)(c2ccccc2)c2nccc3ccccc23)cc1 (stereo not drawn) | inactive |
| NC(=O)/C(=C\c1ccncc1)c1cccc2ccccc12 | inactive |
| CCn1cc(/C=C/C(C)c2cn(CC)c(=O)[nH]c2=O)c(=O)[nH]c1=O (stereo not drawn) | inactive |
| CC(C)=CCC/C(C)=C/Cc1cc(/C=C/c2cc(O)c(CC=C(C)C)c(O)c2)cc(O)c1O | inactive |
| O=C(c1ccccc1)c1ccc2c(c1)NC(=O)c1ccccc1SSc1ccccc1C(=O)N2 | inactive |
| COc1cccc(/N=N/C(=N/NC(=O)c2ccc(C)cc2)c2ccc(N(CCC#N)CCC#N)cc2OC)c1 | inactive |
| COC(=O)c1cc(CC2Cc3cc4c(cc3C2)CCC4)cc2c1CCC2 | inactive |
| Nc1nc(O)c([I+]c2ccccc2)c(=O)[nH]1 | inactive |
| COc1ccc(NC(=O)CC/C(CC(=O)c2ccco2)=N/Nc2ccc([N+](=O)[O-])cc2[N+](=O)[O-])cc1 | inactive |

====

test system: OVCAR-8; test: NCI tumour cell line growth inhibition, 48 h
Active and inactive are the calls of the source. Cut-off read from the data, not from the text of the source: active = GI50 up to about 1.1 µM and inactive = higher.
Each item that follows carries a reported GI50.

| input.smiles | GI50 |
| --- | --- |
| CC(C)CNC(=O)O | > 100 µM (inactive) |
| Cc1cccc(C)c1NC(=O)C(=O)CC(=O)c1sc(Nc2c(C)cccc2C)nc1C | > 100 µM (inactive) |
| N#CCCN(c1ccc(/C=N/c2nc(-c3ccccc3)cs2)cc1)S(=O)(=O)c1ccccc1 | > 100 µM (inactive) |
| O=C(NCCOCCO)c1ccc(O)cc1 | > 100 µM (inactive) |
| O=C(NS(=O)(=O)Nc1ccc(Cl)cc1)OCc1ccc(Cl)cc1Cl | 31.3 µM (inactive) |
| Cc1nc(C)c(Cc2ccccc2)o1 | > 100 µM (inactive) |
| O=[N+]([O-])c1cccc(/C=N/N=c2\ccc3ccccc3[nH]2)c1O | 2.21 µM (inactive) |
| Nc1nc(Cl)cc(Nc2cc(Cl)cc(Cl)c2)n1 | 14.2 µM (inactive) |
| Cc1cccc(N2C(=O)C(Cl)=C(Cl)C2=O)c1 | > 100 µM (inactive) |
| Cc1cc(=O)oc2cc(OCc3c(F)cccc3Cl)ccc12 | > 100 µM (inactive) |
